# system.tested: GST-Aq-NF-kB (Amphimedon queenslandica, UniProt A9Y5G7 2-389)
# Sequence: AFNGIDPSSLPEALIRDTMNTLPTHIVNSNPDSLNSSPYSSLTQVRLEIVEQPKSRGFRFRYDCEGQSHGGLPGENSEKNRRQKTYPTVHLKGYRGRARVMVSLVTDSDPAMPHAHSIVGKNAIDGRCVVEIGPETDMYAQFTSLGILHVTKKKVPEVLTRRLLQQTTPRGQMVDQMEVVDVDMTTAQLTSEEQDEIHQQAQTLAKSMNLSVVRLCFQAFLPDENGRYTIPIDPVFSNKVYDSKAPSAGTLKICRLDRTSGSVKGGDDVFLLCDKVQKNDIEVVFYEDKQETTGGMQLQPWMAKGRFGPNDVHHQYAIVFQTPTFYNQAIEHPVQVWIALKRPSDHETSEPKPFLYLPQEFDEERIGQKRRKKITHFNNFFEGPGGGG
# assay.comment: protein-binding microarray (PBM); PBM: ~300 nM protein, 6 mM HEPES pH 7.8, 80 mM KCl, 0.5 mM EDTA, 0.5 mM EGTA, 6% glycerol, 35 ng/ul poly-dIdC, 1% milk, 1 h, room temperature; high values mean tight binding
# measurement.conditions: dsDNA, one strand shown
We begin with a simple list: items and their reported binding signal.
Reply numerically in z-score, unit not repeated.

Reference set, count: 5
INSERT INTO results (sequence_entry, system_tested, recorded_result) VALUES
  ('CCGATTAACATCACAGAAATCCCTGATGTTAATCGGGTCTTGATTCGCTTGACGCTGCTG', 'GST-Aq-NF-kB (Amphimedon queenslandica, UniProt A9Y5G7 2-389)', 3.9),
  ('CCGATTAACATCAGAGGATTTCCTGATGTTAATCGGGTCTTGATTCGCTTGACGCTGCTG', 'GST-Aq-NF-kB (Amphimedon queenslandica, UniProt A9Y5G7 2-389)', 1.55),
  ('CCGATTAACATCAGGCTATTCCCTGATGTTAATCGGGTCTTGATTCGCTTGACGCTGCTG', 'GST-Aq-NF-kB (Amphimedon queenslandica, UniProt A9Y5G7 2-389)', 3.74),
  ('CCGATTAACATCAAAACAACCCCTGATGTTAATCGGGTCTTGATTCGCTTGACGCTGCTG', 'GST-Aq-NF-kB (Amphimedon queenslandica, UniProt A9Y5G7 2-389)', 4.83),
  ('CCGATTAACATCACTTGGGAAACTGATGTTAATCGGGTCTTGATTCGCTTGACGCTGCTG', 'GST-Aq-NF-kB (Amphimedon queenslandica, UniProt A9Y5G7 2-389)', 1.18);

Let's switch to this sequence now.
Sure, the documented binding signal for CCGATTAACATCAAATCATCCCCTGATGTTAATCGGGTCTTGATTCGCTTGACGCTGCTG is 5.27

* * *

# system.tested: GST-Co-NF-kB (Capsaspora owczarzaki, UniProt F1ARL5 200-546)
# Sequence: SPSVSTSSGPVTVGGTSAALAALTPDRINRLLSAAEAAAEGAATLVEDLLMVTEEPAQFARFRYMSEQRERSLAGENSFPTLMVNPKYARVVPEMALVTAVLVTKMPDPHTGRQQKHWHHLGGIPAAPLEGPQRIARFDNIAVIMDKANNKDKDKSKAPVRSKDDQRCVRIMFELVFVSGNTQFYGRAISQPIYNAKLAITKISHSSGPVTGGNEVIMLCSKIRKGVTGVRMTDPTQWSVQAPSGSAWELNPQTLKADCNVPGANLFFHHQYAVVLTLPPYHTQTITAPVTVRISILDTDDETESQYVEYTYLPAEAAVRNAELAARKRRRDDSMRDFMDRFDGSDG
# assay.comment: protein-binding microarray (PBM); PBM: ~300 nM protein, 6 mM HEPES pH 7.8, 80 mM KCl, 0.5 mM EDTA, 0.5 mM EGTA, 6% glycerol, 35 ng/ul poly-dIdC, 1% milk, 1 h, room temperature; high values mean tight binding
# measurement.conditions: dsDNA, one strand shown
Given measured binding signal, output YES if it is greater than or equal to 4 z-score and NO if not.

INSERT INTO assay_data (sequence_entry, class_label) VALUES
  ('CCGATTAACATCAAGGGGAAAAATGATGTTAATCGGGTCTTGATTCGCTTGACGCTGCTG', 'YES'),
  ('CCGATTAACATCAGGGGATTCCATGATGTTAATCGGGTCTTGATTCGCTTGACGCTGCTG', 'NO'),
  ('CCGATTAACATCAAGAAATCCCCTGATGTTAATCGGGTCTTGATTCGCTTGACGCTGCTG', 'YES'),
  ('CCGATTAACATCAAAATTCCCCATGATGTTAATCGGGTCTTGATTCGCTTGACGCTGCTG', 'YES'),
  ('CCGATTAACATCACGAATCCCCCTGATGTTAATCGGGTCTTGATTCGCTTGACGCTGCTG', 'YES'),
  ('CCGATTAACATCAGGGGATTACATGATGTTAATCGGGTCTTGATTCGCTTGACGCTGCTG', 'NO'),
  ('CCGATTAACATCAAGCGTTCCCCTGATGTTAATCGGGTCTTGATTCGCTTGACGCTGCTG', 'YES'),
  ('CCGATTAACATCAAGGGGAATAATGATGTTAATCGGGTCTTGATTCGCTTGACGCTGCTG', 'YES');

Confirm if binding signal reported for the sequence CCGATTAACATCAGATTTTTCCCTGATGTTAATCGGGTCTTGATTCGCTTGACGCTGCTG is 4 z-score or above.
YES

Confirm if binding signal reported for the sequence CCGATTAACATCAGGAATACCCATGATGTTAATCGGGTCTTGATTCGCTTGACGCTGCTG is 4 z-score or above.
NO

Confirm if binding signal reported for the sequence CCGATTAACATCACAGAATTCCCTGATGTTAATCGGGTCTTGATTCGCTTGACGCTGCTG is 4 z-score or above.
NO

Confirm if binding signal reported for the sequence CCGATTAACATCAAATTTCCCGATGATGTTAATCGGGTCTTGATTCGCTTGACGCTGCTG is 4 z-score or above.
YES

Confirm if binding signal reported for the sequence CCGATTAACATCAAAAATTTTCCTGATGTTAATCGGGTCTTGATTCGCTTGACGCTGCTG is 4 z-score or above.
NO

Confirm if binding signal reported for the sequence CCGATTAACATCAAGTACGGGAATGATGTTAATCGGGTCTTGATTCGCTTGACGCTGCTG is 4 z-score or above.
NO

Confirm if binding signal reported for the sequence CCGATTAACATCAAAACCCCCCATGATGTTAATCGGGTCTTGATTCGCTTGACGCTGCTG is 4 z-score or above.
YES

Confirm if binding signal reported for the sequence CCGATTAACATCAACGAATTCCCTGATGTTAATCGGGTCTTGATTCGCTTGACGCTGCTG is 4 z-score or above.
NO

Confirm if binding signal reported for the sequence CCGATTAACATCAAGGGGGGGCATGATGTTAATCGGGTCTTGATTCGCTTGACGCTGCTG is 4 z-score or above.
YES

Confirm if binding signal reported for the sequence CCGATTAACATCAAACTCCCCCCTGATGTTAATCGGGTCTTGATTCGCTTGACGCTGCTG is 4 z-score or above.
YES

Confirm if binding signal reported for the sequence CCGATTAACATCAGGGGTAACACTGATGTTAATCGGGTCTTGATTCGCTTGACGCTGCTG is 4 z-score or above.
YES

Confirm if binding signal reported for the sequence CCGATTAACATCAGGGAATCCCCTGATGTTAATCGGGTCTTGATTCGCTTGACGCTGCTG is 4 z-score or above.
YES

Confirm if binding signal reported for the sequence CCGATTAACATCAAGGTTTCCCCTGATGTTAATCGGGTCTTGATTCGCTTGACGCTGCTG is 4 z-score or above.
YES

Confirm if binding signal reported for the sequence CCGATTAACATCAGGAGTACCCCTGATGTTAATCGGGTCTTGATTCGCTTGACGCTGCTG is 4 z-score or above.
NO

Confirm if binding signal reported for the sequence CCGATTAACATCAGAGATTCCCCTGATGTTAATCGGGTCTTGATTCGCTTGACGCTGCTG is 4 z-score or above.
YES

Confirm if binding signal reported for the sequence CCGATTAACATCAAGGGGGAAATTGATGTTAATCGGGTCTTGATTCGCTTGACGCTGCTG is 4 z-score or above.
YES

* * *

# system.tested: GST-Dm-Relish (Drosophila melanogaster, UniProt Q94527 99-473)
# Sequence: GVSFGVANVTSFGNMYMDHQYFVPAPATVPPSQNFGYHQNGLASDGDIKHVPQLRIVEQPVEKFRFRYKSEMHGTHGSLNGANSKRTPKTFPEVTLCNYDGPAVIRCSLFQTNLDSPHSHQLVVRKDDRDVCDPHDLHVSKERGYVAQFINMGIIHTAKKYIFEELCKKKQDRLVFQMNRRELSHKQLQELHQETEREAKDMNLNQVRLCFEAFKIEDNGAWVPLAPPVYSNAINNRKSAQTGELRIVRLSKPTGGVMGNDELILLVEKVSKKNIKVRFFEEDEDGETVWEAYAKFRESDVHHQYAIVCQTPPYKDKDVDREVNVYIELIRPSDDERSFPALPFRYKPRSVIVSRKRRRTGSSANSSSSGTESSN
# assay.comment: protein-binding microarray (PBM); PBM: ~300 nM protein, 6 mM HEPES pH 7.8, 80 mM KCl, 0.5 mM EDTA, 0.5 mM EGTA, 6% glycerol, 35 ng/ul poly-dIdC, 1% milk, 1 h, room temperature; Ap Aiptasia and Nv Nematostella (sea anemones) / Co Capsaspora / Aq Amphimedon (sponge) / Dm Drosophila / Hu human; RHD is the Rel homology domain; high values mean tight binding
# measurement.conditions: dsDNA, one strand shown
We begin with a simple list: items and their reported binding signal.
Reply numerically in z-score, unit not repeated.

Reference set, count: 3
INSERT INTO results (sequence_entry, unit, recorded_result) VALUES
  ('CCGATTAACATCAAATTCCCCCGTGATGTTAATCGGGTCTTGATTCGCTTGACGCTGCTG', 'z-score', 8.23),
  ('CCGATTAACATCAAGGGAGTACCTGATGTTAATCGGGTCTTGATTCGCTTGACGCTGCTG', 'z-score', 3.08),
  ('CCGATTAACATCAAAAAATTCCATGATGTTAATCGGGTCTTGATTCGCTTGACGCTGCTG', 'z-score', 2.59);

Sure, the documented binding signal for CCGATTAACATCAGATTTACCCCTGATGTTAATCGGGTCTTGATTCGCTTGACGCTGCTG is 2.13

Sure, the documented binding signal for CCGATTAACATCACAGAATTTCCTGATGTTAATCGGGTCTTGATTCGCTTGACGCTGCTG is 1.09

Sure, the documented binding signal for CCGATTAACATCAAAAATGCCCCTGATGTTAATCGGGTCTTGATTCGCTTGACGCTGCTG is 5.68

Sure, the documented binding signal for CCGATTAACATCACGTAAATTCCTGATGTTAATCGGGTCTTGATTCGCTTGACGCTGCTG is 1.43

Sure, the documented binding signal for CCGATTAACATCAGGAGAACCCCTGATGTTAATCGGGTCTTGATTCGCTTGACGCTGCTG is 3.65

Sure, the documented binding signal for CCGATTAACATCAGGAATCCCTATGATGTTAATCGGGTCTTGATTCGCTTGACGCTGCTG is 6.17

Sure, the documented binding signal for CCGATTAACATCAGGGGAAACTATGATGTTAATCGGGTCTTGATTCGCTTGACGCTGCTG is 3.46

Sure, the documented binding signal for CCGATTAACATCAAGGAAAGTCCTGATGTTAATCGGGTCTTGATTCGCTTGACGCTGCTG is 3.16

Sure, the documented binding signal for CCGATTAACATCAGAAAAGTCCCTGATGTTAATCGGGTCTTGATTCGCTTGACGCTGCTG is 8.36

Sure, the documented binding signal for CCGATTAACATCAGGAAAGGCCATGATGTTAATCGGGTCTTGATTCGCTTGACGCTGCTG is 1.29
